Tested on: MALME-3M melanoma
Test: NCI-60 one-dose screen, 48 h
Details: 10 µM unless noted
This is part of a sample that, as a whole, favours compounds with a hit. Of some 83,000 tested, about 20% had one in any assay. Calls of active or inactive are those of the source. The calls were made as follows: active = growth percent below 10; inactive = the rest.
Respond only with the outcome that fits, drawn from yes (active), no (inactive)

Observe how each entry below is paired with its result.
compound	labelClass
CCOC(=O)C1=C(C)N(C)C(=O)N(C)C1c1ccccc1 (stereo unspecified)	no
COc1cccc(C(=O)Nc2cccc(NC(=O)c3ccccn3)c2)c1	no
Cc1nn(C)c2ncnc(Nc3ccccc3Br)c12	no
O=C(c1ccc(F)cc1)C1CCN(CCn2c(=O)[nH]c3ccccc3c2=O)CC1	no
CCCCC1=C(Br)C(=O)c2ncccc2C1=O	no
COc1ccc2c(c1)c(-c1nc(-c3cn(C)c4ccncc34)cs1)cn2C	yes
O=C(Nc1cccc(Cl)c1)Oc1c(Cl)c(Cl)c(Cl)c(Cl)c1Cl	no
Cc1cccc(C)c1NC(=O)Nc1ccccc1	no

[in] I would be grateful if you could indicate the recorded call for `Cn1nc(-c2ccc(Cl)cc2)nc2c(=O)n(C)c(=O)nc1-2` .
[out] yes

[in] I would be grateful if you could indicate the recorded call for N#CC1=C(N)Oc2c(ccc3ccccc23)C1c1cc2ccccc2n2nnnc12 (stereo unspecified) .
[out] no

[in] I would be grateful if you could indicate the recorded call for `CCN1CCN(CCOc2ccc(CNc3ccc4nc(CCC5CCCCC5)[nH]c4c3)cc2)CC1` .
[out] yes

====

System: HS 578T breast
Test: NCI-60 one-dose screen, 48 h
Conditions: 10 µM unless noted
Compounds without any hit were thinned out: in the full panel of roughly 83,000, 20% have a hit. Active and inactive are the calls of the source. How the source made its calls: active means growth percent below 10; inactive means the rest.
Respond only with the outcome that fits, drawn from true = active, false = inactive

compound	targetSystem	labelClass
CCN(CC)CCOc1ccc(/C(=C(\C)Cc2ccc(OC)cc2)c2ccc(O)cc2)cc1	HS 578T breast	false
CC(=O)OCCOc1cc(Cl)c(Cl)cc1Cl	HS 578T breast	false
Cc1ccc(C23CCC(=O)N2CCc2cncn23)cc1 (stereo not given)	HS 578T breast	false
CNc1nc2ncc(-c3c(C)noc3C)cc2n1Cc1ccccc1	HS 578T breast	false

[in] I would be grateful if you could indicate the recorded call for CCOC(=O)C1=CCC(n2cc(F)c(=O)[nH]c2=O)O1 (stereo not given) .
[out] false

[in] I would be grateful if you could indicate the recorded call for N#CC1=C(N)Oc2c(ccc3cccnc23)C1c1ccccc1 (stereo not given) .
[out] false

[in] I would be grateful if you could indicate the recorded call for `Cc1cc(C)n(C(=O)CSc2nc3sc4c(c3c(=O)n2-c2ccccc2)CCCCC4)n1` .
[out] false

[in] I would be grateful if you could indicate the recorded call for `O=[N+]([O-])c1ccc(Oc2cccc3c(Oc4ccc([N+](=O)[O-])cc4[N+](=O)[O-])cccc23)c([N+](=O)[O-])c1` .
[out] false

[in] I would be grateful if you could indicate the recorded call for `CCOC(=O)c1ccc2c(c1)[n+](=O)c(C(C)=O)c(C(F)(F)F)n2[O-]` .
[out] true

[in] I would be grateful if you could indicate the recorded call for `Cc1cccc(C)c1NC(=O)Nc1ccccc1` .
[out] false

====

Tested on: SK-OV-3 ovarian
Assay: NCI-60 one-dose screen, 48 h (100 = growth as untreated, 0 = no growth, -100 = all killed)
Conditions: 10 µM unless noted
The panel holds about 83,000 compounds, 20% with a hit somewhere; the sample as a whole holds those more often.
measuredParameter: growth (%)
Answer in %, number only, no unit symbol.

compound	targetSystem	growth / %
CCOC(=O)C1=C(c2ccccc2)N=C2SC=C(c3cccc([N+](=O)[O-])c3)N2C1c1ccc(O)cc1 (stereo not given)	SK-OV-3 ovarian	102
O=C(Nc1ncc(Cc2ccccc2)s1)c1ccc2c(c1)OCCO2	SK-OV-3 ovarian	25
Cc1ccc(NC(=O)c2ccc(Nc3ncnc4c3cnn4-c3cccc(F)c3)cc2)cc1	SK-OV-3 ovarian	109

[in] Look up growth with SK-OV-3 ovarian for this compound: `Cc1cc(=O)oc2cc(Oc3nc(-c4ccccc4)cn4c(-c5ccccc5)cnc34)ccc12`
[out] 63.1

[in] Look up growth with SK-OV-3 ovarian for this compound: O=C1OCC2=C1C(c1cccc(F)c1)c1cc3c(cc1N2CCO)CCC3 (stereo not given)
[out] 32.8
